Source: ChEMBL document CHEMBL1125482

# Assay name: in vivo
# Conditions: callithrix, serum, iv
# Description: Serum T1/2 in marmosets (IV dose)
Endpoint label: half-life (h)

Below are worked cases with known answers.
> print(dat)
                                   compound  reading
1  CC(C)(O/N=C(\C(=O)N[C@@H]1C(=O)N2C(C(=O)O)=C(CNCc3cc(O)c(O)c(Br)c3)CS[C@H]12)c1csc(N)n1)C(=O)O      0.7
2  CCOC(=O)c1nc2cc(O)c(O)cc2nc1C(=O)NCC1=C(C(=O)O)N2C(=O)[C@@H](NC(=O)/C(=N\OC(C)(C)C(=O)O)c3csc(N)n3)[C@H]2SC1      4.6
3  CCn1nc(C(=O)NCC2=C(C(=O)O)N3C(=O)[C@@H](NC(=O)/C(=N\OC(C)(C)C(=O)O)c4csc(N)n4)[C@H]3SC2)c(=O)c2cc(O)c(O)cc21      2.2
4  CCO/N=C(\C(=O)N[C@@H]1C(=O)N2C(C(=O)O)=C(CNC(=O)c3cc(O)c(O)c(Cl)c3)CS[C@H]12)c1csc(N)n1      1.3
5  CC(C)(O/N=C(\C(=O)N[C@@H]1C(=O)N2C(C(=O)O)=C(CNC(=O)c3cc(O)c(O)cc3Br)CS[C@H]12)c1csc(N)n1)C(=O)O      0.9
6  CCO/N=C(\C(=O)N[C@@H]1C(=O)N2C(C(=O)O)=C(CNC(=O)c3cc(O)c(O)c(F)c3)CS[C@H]12)c1csc(N)n1     0.65
7  CO/N=C(\C(=O)N[C@@H]1C(=O)N2C(C(=O)O)=C(COC(C)=O)CS[C@H]12)c1csc(N)n1 [CEFOTAXIME]      0.5
8  CCN(CC1=C(C(=O)O)N2C(=O)[C@@H](NC(=O)/C(=N\OC(C)(C)C(=O)O)c3csc(N)n3)[C@H]2SC1)C(=O)c1cc(O)c(O)c(C#N)c1        1

A: CC(C)(O/N=C(\C(=O)N[C@@H]1C(=O)N2C(C(=O)O)=C(CNC(=O)c3cc(O)c(O)c(F)c3)CS[C@H]12)c1csc(N)n1)C(=O)O
B: CCO/N=C(\C(=O)N[C@@H]1C(=O)N2C(C(=O)O)=C(CNC(=O)c3cc(O)c(O)cc3Br)CS[C@H]12)c1csc(N)n1
# query: argmin of half-life over A and B Please identify the chosen entry by its label.
B
(B: 0.35 h, A: 3.5 h)

###

# Assay name: in vivo
# Conditions: callithrix, serum, iv
Endpoint label: half-life (min)

> print(dat)
                                smiles.text  reading
1  CCN(CC1=C(C(=O)O)N2C(=O)[C@@H](NC(=O)/C(=N\OC(C)(C)C(=O)O)c3csc(N)n3)[C@H]2SC1)C(=O)c1cc(O)c(O)c(Br)c1       60

1: CCN(CC1=C(C(=O)O)N2C(=O)[C@@H](NC(=O)/C(=N\OC(C)(C)C(=O)O)c3csc(N)n3)[C@H]2SC1)C(=O)c1cc(O)c(O)c(F)c1
2: CCO/N=C(\C(=O)N[C@@H]1C(=O)N2C(C(=O)O)=C(CNC(=O)c3cc(O)c(O)c([N+](=O)[O-])c3)CS[C@H]12)c1csc(N)n1
Between 1 and 2 , whose measured half-life reads higher? Please identify the chosen entry by its label.
2
(2: 48 min, 1: 30 min)
